Attribution: paper PMC12040169

EXPERIMENTAL PROTOCOL: in vitro
MEASUREMENT SETUP: human, hela cells, % viability
QUANTITY NAME: viability at 28.5 h, 10 µM (%)
Give bare numbers, in %.

Sample records with viability at 28.5 h, 10 µM:
Cc1cccc(OCC(=O)NC(=S)Nc2cccc(C(=O)O)c2C)c1 [CBK265067]; 96.3
CC(C)(C)c1ccc(S(=O)(=O)NCc2ccc(C(=O)NCc3ccccn3)cc2)cc1 [CBK267248]; 115
OCCN(CCO)c1cncc(-c2ccc(F)c(Cl)c2)n1 [CBK066015]; 96.3
CN(C)CCOC1OC(CO)C(O)C(O)C1O (stereo not shown) [CBK012476C]; 94.4
COc1cc(OC)c(CN2CC3(C)CC2CC(C)(C)C3)cc1Br (stereo not shown) [CBK307074]; 86.4
O=C(c1ccccc1)N1C[C@H](c2ccsc2)[C@H]2CN(Cc3ccsc3)CC[C@H]21 [CBK285604]; 118

Each compound below has a reported value. Please supply its viability at 28.5 h, 10 µM.
1. Cc1cc(C(=O)NCCc2ccc(S(=O)(=O)NC(=O)NC3CCCCC3)cc2)n[nH]1 [CBK023997]
2. O=C(CC1CCN(Cc2cccc(C(F)(F)F)c2)CC1)N(Cc1ccccn1)C1CC1 [CBK286494]

1: 99.1; 2: 101

###

EXPERIMENTAL PROTOCOL: in vitro
MEASUREMENT SETUP: human, hela cells, % viability
QUANTITY NAME: viability at 28.5 h, 10 µM (%)
Give bare numbers, in %.

Clc1ccc(CN2CCN(c3nccnc3OCCN3CCOCC3)CC2)cc1Cl [CBK082884T]; 96.7
Cc1cc(NC(c2cccc([N+](=O)[O-])c2)c2ccc3cccnc3c2O)no1 (stereo not shown) [CBK296083]; 89.1
C=Cn1cc(CN2CCC(O)(c3ccccc3C)CC2)c(C)n1 [CBK282580]; 93.7
COc1ccccc1-c1cnc(N)c(N2CCC(C(=O)O)CC2)n1 [CBK064082]; 96.1
COc1c(O)ccc(/C=N/NC(=O)c2cccnc2)c1[N+](=O)[O-] [CBK262197]; 112
COCCCNC(=O)Cn1cnc2sc(C)cc2c1=O [CBK071899]; 102
Cc1ccc(S(=O)(=O)Nc2ccc3c(ccn3CCOC3CCN(C(=O)OC(C)(C)C)CC3)c2)cc1Cl [CBK172991]; 99
Cc1ccc(S(=O)(=O)N2C[C@H]3C[C@H](NC(=O)C(C)C)[C@H]3C2)cc1 [CBK285317]; 107
O=C(CNc1n[nH]c(=O)[nH]c1=O)N/N=C/c1ccc(C(=O)O)cc1 [CBK263529]; 96.2
FC(F)(F)c1ccnc(OCc2ccc(Cl)c(Cl)c2)c1 [CBK116623]; 89.2

Each compound below has a reported value. Please supply its viability at 28.5 h, 10 µM.
1. Cc1ccccc1OCc1nn2c(C)nnc2s1 [CBK269220]
2. CC(Oc1ccc(/C=N/n2cnnc2)cc1)C(=O)O (stereo not shown) [CBK263927]
3. CN(C)c1cccc(-c2cc(Nc3ccc4c(c3)OCCO4)ncn2)c1 [CBK090808]
4. Cc1cc(C)n(CC2(CNC(=O)C(c3ccccc3F)N(C)C)CC2)n1 (stereo not shown) [CBK306920]
5. CN(C)/C=N/c1ncc2ncn(C3CC(O)C(CO)O3)c2n1 (stereo not shown) [CBK201175]
6. CC(=O)Oc1cccc(NC(=O)CC2Sc3ccccc3NC2=O)c1 (stereo not shown) [CBK261792]
7. CN(C)CCN(Cc1nc2ccccc2[nH]1)Cc1cccs1 [CBK283020]

1. 100
2. 82
3. 66.3
4. 97.2
5. 90.8
6. 92
7. 85.1

Each compound below has a reported value. Please supply its viability at 28.5 h, 10 µM.
1. CC(C)C(=O)Nc1c(-c2ccccc2)cnc2ncccc12 [CBK083713]
2. C/C(O)=C1/C(=O)N(c2nc3ccccc3s2)N=C1CC(=O)O [CBK265828]

94.8
90.5
